System: Trypanosoma brucei subsp. brucei
Assay: Anti-Trypanosoma Alamar Blue assay (trypomastigotes, strain TC 221)
Conditions: 72 h, read-out: IC50 T. brucei brucei (72 h)
assayReadout: IC50 (µM)
Enter your answer as a number in µM; do not include the unit.

(Q) For the compound COc1cc(C)c(C(=O)OC2C(C)OC(OC3CC(C)=CC4C3CC(C)C3/C(C)=C\CC/C(C)=C/C5(C)C=C(C(=O)O)C(C)CC56OC(=O)C(=C6O)C(=O)C43C)C(O)C2O)c(OC)c1 (centres unmarked) , what IC50 is on record?
(A) 80.3

(Q) For the compound COc1cc(O)cc(C)c1C(=O)OC1C(C)OC(OC2CC=C(C)C3C2CC(C)C2/C(C)=C\CC/C(C)=C/C4C=C(C(=O)O)C(C)CC45OC(=O)C(=C5O)C(=O)C32C)C(O)C1O (centres unmarked) , what IC50 is on record?
(A) 30.4

(Q) For the compound COc1cc(O)cc(C)c1C(=O)OC1C(C)OC(OC2CC(C)=CC3C2CC(C)C2/C(C)=C\CC/C(C)=C/C4(C)C=C(C(=O)O)C(C)CC45OC(=O)C(=C5O)C(=O)C32C)C(O)C1O (centres unmarked) , what IC50 is on record?
(A) 41.6

(Q) For the compound COc1cc(C)c(C(=O)NC2C(C)OC(OC3CC(C)=CC4C3CC(C)C3/C(C)=C\CC/C(C)=C/C5(C)C=C(C(=O)O)C(C)CC56OC(=O)C(=C6O)C(=O)C43C)C(O)C2(C)O)c(O)c1 (centres unmarked) , what IC50 is on record?
(A) 31.7

(Q) For the compound CC1=CC2(C)/C=C(\C)CC/C=C(/C)C3C(C)=CC4C(O)CCC(C)C4C3(C)C(=O)C3=C(O)C2(CC1C)OC3=O (centres unmarked) , what IC50 is on record?
(A) 34.2

* * *

Assay: Cytotoxicity Alamar Blue assay, 293T kidney epithelial cells
Details: human, 293T kidney epithelial cells
So I've got a bunch of compounds here, and I need their IC50 at 24 h values.
Enter your answer as a number in µM; do not include the unit.

(Q) For the compound COc1cc(O)cc(C)c1C(=O)OC1C(C)OC(OC2CC=C(C)C3C2CC(C)C2/C(C)=C\CC/C(C)=C/C4C=C(C(=O)O)C(C)CC45OC(=O)C(=C5O)C(=O)C32C)C(O)C1O (stereo not shown) , what IC50 at 24 h is on record?
(A) 33.4

(Q) For the compound COc1cc(O)cc(C)c1C(=O)OC1C(C)OC(OC2CC(C)=CC3C2CC(C)C2/C(C)=C\CC/C(C)=C/C4(C)C=C(C(=O)O)C(C)CC45OC(=O)C(=C5O)C(=O)C32C)C(O)C1O (stereo not shown) , what IC50 at 24 h is on record?
(A) 58.6

* * *

Conditions: mouse
assayReadout: IC50 at 24 h
Just so you know, I need the unit written after the number.

(Q) For the compound CC1=CC2(C)/C=C(\C)CC/C=C(/C)C3C(C)=CC4C(O)CCC(C)C4C3(C)C(=O)C3=C(O)C2(CC1C)OC3=O (stereo not shown) [Compound 5, Tetromycin B] , what IC50 at 24 h is on record?
(A) 20.2 µM

* * *

So I've got a bunch of molecules here, and I need their Ki values.

(Q) # query: Ki | item COc1cc(O)cc(C)c1C(=O)OC1C(C)OC(OC2CC=C(C)C3C2CC(C)C2/C(C)=C\CC/C(C)=C/C4C=C(C(=O)O)C(C)CC45OC(=O)C(=C5O)C(=O)C32C)C(O)C1O (stereo not drawn) | system: falcipain-2 (Plasmodium falciparum, UniProt Q8I6U4)
(A) 1650 nM

(Q) # query: Ki | item CC1=CC2(C)/C=C(\C)CC/C=C(/C)C3C(C)=CC4C(O)CCC(C)C4C3(C)C(=O)C3=C(O)C2(CC1C)OC3=O (stereo not drawn) | system: falcipain-2 (Plasmodium falciparum, UniProt Q8I6U4)
(A) 1420 nM

(Q) # query: Ki | item COc1cc(O)cc(C)c1C(=O)OC1C(C)OC(OC2CC(C)=CC3C2CC(C)C2/C(C)=C\CC/C(C)=C/C4(C)C=C(C(=O)O)C(C)CC45OC(=O)C(=C5O)C(=O)C32C)C(O)C1O (stereo not drawn) | system: falcipain-2 (Plasmodium falciparum, UniProt Q8I6U4)
(A) 3100 nM
